Measured values drawn from ChEMBL document CHEMBL1128555 for this set.

Biological target: Angiotensin II receptor (AT-1) type-1 (Rattus norvegicus, UniProt P29089+P25095)
Assay: Binding affinity expressed as IC50 to the Angiotensin II receptor, type 1, from rat liver membrane
Assign labels as follows, please: Yes for IC50 below 20 nM; No for IC50 equal to or exceeding 20 nM.

In [3]: df
Out[3]:
                             molecule_smiles  qualitative_label
 0  CCCCc1ncc(/C=C2/C(=O)N(C)C(=O)N2Cc2csc(C)n2)n1Cc1ccc(C(=O)OC)cc1                Yes
 1  CCCCc1ncc(/C=C2/C(=O)N(CCCC)C(=O)N2Cc2cccs2)n1Cc1ccc(C(=O)OC)cc1                Yes
 2  CCCCc1ncc(/C=C2/C(=O)N(CCCC)C(=O)N2Cc2ccc(C)cc2)n1Cc1ccc(C(=O)OC)cc1                 No
 3  CCCCc1ncc(/C=C2/C(=O)N(CCCC)C(=O)N2Cc2csc(Br)c2)n1Cc1ccc(C(=O)OC)cc1                 No
 4  CCCCc1ncc(/C=C2/C(=O)N(CCCC)C(=O)N2C=C(C)C)n1Cc1ccc(C(=O)OC)cc1                Yes
 5  CCCCc1ncc(/C=C2/C(=O)N(CCCC)C(=O)N2Cc2ccsc2)n1Cc1ccc(C(=O)O)cc1                Yes
 6  CCCCc1ncc(/C=C2/C(=O)N(CCCC)C(=O)N2Cc2c[nH]c(C)n2)n1Cc1ccc(C(=O)OC)cc1                 No
 7  CCCCc1ncc(/C=C2/C(=O)NC(=O)N2Cc2cccs2)n1Cc1ccc(C(=O)OC)cc1                Yes
 8  CCCCc1ncc(/C=C2/C(=O)N(CCCC)C(=O)N2Cc2ccc(C(F)(F)F)cc2)n1Cc1ccc(C(=O)OC)cc1                 No
 9  CCCCc1ncc(/C=C2/C(=O)N(CCCC)C(=O)N2CCCC)n1Cc1ccc(C(=O)O)cc1                Yes
10  CCCCc1ncc(/C=C2/C(=O)N(CCCC)C(=O)N2Cc2ccc(Br)s2)n1Cc1ccc(C(=O)OC)cc1                Yes
11  CCCCc1ncc(/C=C2\C(=O)NC(=O)N2Cc2ccccc2)n1Cc1ccc(C(=O)O)cc1                Yes
12  CCCCc1ncc(/C=C2\C(=O)NC(=O)N2CCCC)n1Cc1ccc(NS(=O)(=O)C(F)(F)F)cc1                Yes
13  CCCCc1ncc(/C=C2/C(=O)N(CCCC)C(=O)N2Cc2ccoc2)n1Cc1ccc(C(=O)OC)cc1                Yes
14  CCCCc1ncc(/C=C2/C(=O)N(CCCC)C(=O)N2CCCC)n1Cc1ccc(-c2ccccc2C(=O)OC)cc1                 No
15  CCCCc1ncc(/C=C2/C(=O)N(CCCC)C(=O)N2CCc2cccs2)n1Cc1ccc(C(=O)OC)cc1                Yes
16  CCCCc1ncc(/C=C2/C(=O)N(CCCC)C(=O)N2Cc2cccs2)n1Cc1ccc(C(=O)O)cc1                Yes
17  CCCCc1ncc(/C=C2/C(=O)N(CCCC)C(=O)N2Cc2ccno2)n1Cc1ccc(C(=O)OC)cc1                Yes
18  CCCCc1ncc(/C=C2/C(=O)NC(=O)N2CCCC)n1Cc1ccc(-c2ccccc2-c2nn[nH]n2)cc1                Yes
19  CCCCc1ncc(/C=C2/C(=O)N(CCCC)C(=O)N2Cc2ccc([N+](=O)[O-])cc2)n1Cc1ccc(C(=O)OC)cc1                Yes
20  CCCCc1ncc(/C=C2/C(=O)N(CCCO)C(=O)N2Cc2csc(C)n2)n1Cc1ccc(C(=O)OC)cc1                 No
